- Tested on: SF-268
- measurement.description: NCI tumour cell line growth inhibition, 48 h
The source made the active and inactive calls. No stated cut-off is given here; in the data, active = GI50 up to about 1.1 µM and inactive = higher.

{"compound": "C=CCCC1CCCCC/C1=N\\N(C)C (centres undefined)", "GI50": "> 100 µM (inactive)"}
{"compound": "Cn1c(=O)c(NC(=O)C(Cl)(Cl)Cl)nc2ccccc21", "GI50": "> 100 µM (inactive)"}
{"compound": "O=NN(CCCl)C(=O)NCc1ccc[n+]([O-])c1", "GI50": "37.2 µM (inactive)"}
{"compound": "COc1ccc(NC(=S)Nc2cc(C)cc(C)n2)cc1", "GI50": "> 100 µM (inactive)"}
